# Test system: Staphylococcus aureus ATCC 6538P
# Assay type: cell-based
# assay.conditions: ATCC 6538, pH 7.4
Non-standard residues stand in square brackets, D forms with d. Residues, ends and D or L forms follow the SMILES beside them. *: point of attachment. Palmitoyl = CCCCCCCCCCCCCCCC(=O)*
property.name: Minimal Inhibitory Concentration, S. aureus ATCC 6538P (µM)

# compound, experimental.system, lt.gt.eq, value.observed
data = [
    ("CCCCCCCCCCCCCCCC(=O)N[C@@H](CCCCN)C(=O)N[C@@H](CCCCN)C(=O)N[C@@H](CCCCN)C(=O)N[C@@H](CCCCN)C(N)=O [PA-KKKK] (Palmitoyl-KKKK-NH2)", "Staphylococcus aureus ATCC 6538P", "=", 25),
    ("CCCCCCCCCCCCCCCC(=O)N[C@H](CCCCN)C(=O)NCC(=O)NCC(=O)NCC(=O)N[C@H](CCCCN)C(=O)NCC(=O)NCC(=O)NCC(=O)N[C@H](CCCCN)C(=O)NCC(=O)NCC(=O)N[C@H](CCCCN)C(N)=O [lipopeptide 2] (Palmitoyl-[dK]GGG[dK]GGG[dK]GG[dK]-NH2)", "Staphylococcus aureus ATCC 6538P", "=", 12.5),
    ("CCCCCCCCCCCCCCCC(=O)N[C@@H](CCCCN)C(=O)N[C@H](C(=O)N[C@@H](C(=O)N[C@@H](C(=O)N[C@@H](CCCCN)C(=O)N[C@H](C(=O)N[C@H](C(=O)N[C@@H](C(=O)N[C@@H](CCCCN)C(=O)N[C@@H](C(=O)N[C@H](C(=O)N[C@@H](CCCCN)C(N)=O)C(C)C)C(C)C)C(C)C)C(C)C)C(C)C)C(C)C)C(C)C)C(C)C [lipopeptide 7] (Palmitoyl-KV[dV][dV]KVV[dV]K[dV]VK-NH2)", "Staphylococcus aureus ATCC 6538P", ">", 100),
    ("CCCCCCCCCCCCCCCC(=O)N[C@@H](CCCCN)C(=O)N[C@H](CCCCN)C(N)=O [PA-KK, Palmitoyl-Lys-D-Lys-NH2]", "Staphylococcus aureus ATCC 6538P", "=", 6.25),
    ("CCCCCCCCCCCCCCCC(=O)N[C@@H](CCCCN)C(=O)NCC(=O)NCC(=O)N[C@H](CCCCN)C(N)=O [PA-KGGK, Palmitoyl-Lys-Gly-Gly-D-Lys-NH2] (Palmitoyl-KGG[dK]-NH2)", "Staphylococcus aureus ATCC 6538P", "=", 50),
]

FYI, the data here is from patent US8445636B2.
